Experiment: Pharmacokinetic study
Assay type: in vivo, Sprague-Dawley rats
Conditions: female, Sprague-Dawley, rat, plasma, iv, 2 mg/kg, i.v. (2 mg/kg), read-out: Tmax
measured-quantity: Tmax (min)
The answer is to be given in min; state only the numeric part.

What does the record list as Tmax for CCOC1c2c(ccc3c2OCO3)-c2ccc3cc4c(cc3c2N1C)OCO4 (stereo not shown) [Eth, Ethoxysanguinarine] ?
4.98

----------
Assay: Pharmacokinetic study
Format: in vivo, Sprague-Dawley rats
Details: female, Sprague-Dawley, plasma, iv; i.v. (2 mg/kg), rat
measured-quantity: half-life (min)
Numeric only. Scale: min

Request the reported half-life associated with CCOC1c2c(ccc3c2OCO3)-c2ccc3cc4c(cc3c2N1C)OCO4 (stereo not shown)
212

----------
Assay: Pharmacokinetic study
Format: in vivo, Sprague-Dawley rats
Conditions: female, Sprague-Dawley, plasma, po; i.g. (15 mg/kg), rat
measured-quantity: AUC(0-t) (ng·h/mL)
Note: unit ng·h/mL is implicit; provide only the numeric part.

Which AUC(0-t) value belongs to CCOC1c2c(ccc3c2OCO3)-c2ccc3cc4c(cc3c2N1C)OCO4 (stereo not shown) ?
3390

----------
Each entry below lists one item and its recorded pIC50 value.
System: MDA-MB-436
Assay: MTT cytotoxicity assay
Type: cell-based
Details: Homo sapiens, MDA-MB-436, 24 h
The value called pIC50 is obtained by taking minus log10 of the concentration in mol/L.

[[record]]
compound = "CCOC1c2c(ccc3c2OCO3)-c2ccc3cc4c(cc3c2N1C)OCO4 (centres unmarked)"
subject_of_test = "MDA-MB-436"
observed_measurement = 5.58


Next item in the queue.
Suppose we examine the compound CN1c2c(ccc3cc4c(cc23)OCO4)-c2ccc3c(c2C1OC(=O)CCCCC1SCC2NC(=O)NC21)OCO3 (centres unmarked) ; what pIC50 value has been reported?
5.43

----------
Experiment: Pharmacokinetic study
Type: in vivo, Sprague-Dawley rats
Conditions: female, Sprague-Dawley, plasma, iv; i.v. (2 mg/kg), rat; read-out: MRT0-t
measured-quantity: MRT last (h)
Respond numerically; units are h and should not be typed.

Could you share which MRT last value was measured for CCOC1c2c(ccc3c2OCO3)-c2ccc3cc4c(cc3c2N1C)OCO4 (stereo not shown) ?
2.18

----------
Test: Pharmacokinetic study
Format: in vivo, Sprague-Dawley rats
Settings: female, Sprague-Dawley, plasma, iv; i.v. (2 mg/kg), rat
measured-quantity: AUC(0-t)
Numeric answer plus unit only.

Entry under review: CCOC1c2c(ccc3c2OCO3)-c2ccc3cc4c(cc3c2N1C)OCO4 (stereo not shown) [Eth, Ethoxysanguinarine] . Reported AUC(0-t)?
3640 ng·h/mL

----------
Assay: Pharmacokinetic study
Assay type: in vivo, Sprague-Dawley rats
Conditions: female, Sprague-Dawley, plasma, iv; i.v. (2 mg/kg), rat
Procedure: Eleven Sprague–Dawley rats (220–250 g, female) were bought from Hunan SJA Laboratory Animal Co., Ltd. (Changsha, China), and maintained and monitored in a specific pathogen-free environment. They were fasted overnight before the experiments. All rat studies were conducted according to protocols approved by the Animal Ethics Committee of Hubei University of Medicine. […] The plasma concentrations of Eth were determined by nuclear magnetic resonance analysis (Figure S1). […]
measured-quantity: Cmax
Include the unit after the number when you answer.

Entry CCOC1c2c(ccc3c2OCO3)-c2ccc3cc4c(cc3c2N1C)OCO4 (stereo not shown) : reported Cmax = ?
3580 ng/mL
